meta.source: patent US20180327501A1

# experimental-target: T1, EGFRvIII on U87-EGFRvIII cells (human, UniProt P00533 25-1210)
# T1 construct: whole, on cells; EGFRvIII is a deletion variant of it; also called U87MG-EGFRvIII; mutant human EGFR
# assay-remarks: FACS on U87MG-EGFRvIII cells, method of Example 9; PBS control 1
value-kind: mean fluorescence intensity (MFI)
Answer field: number only, no words.

Which measured mean fluorescence intensity (MFI) value corresponds to M25/CD3 single chain bifunctional antibody (bispecific antibody, part only; not given: linker, anti-CD3 scFv, His tag, not shown: another chain or arm of the molecule) DIQMTQSPSSLSASVGDRVTITCHASQDINVNIGWLQQKPGKAFKGLIYHGKNLEDGVPSRFSGSGSGTDFTLTISSLQPEDFATYYCNQYENIPLTFGQGTKVEIKRGGGGSGGGGSGGGGSDVQLVESGGGLVQPGGSLRLSCAVSGYSITSDYAWNWIRQAPGKGLEWLGYISYRGRTRYNPSLKSRISITRDNSKNTFFLQLNSLRAEDTAVYYCARLGRGFRYWGQGTLVTVSS ?
36.5

I would be grateful if you could share the reported mean fluorescence intensity (MFI) for S17/CD3 single chain bifunctional antibody (bispecific antibody, part only; not given: linker, anti-CD3 scFv, His tag, not shown: another chain or arm of the molecule) DIQMTQSPSSLSASVGDRVTITCHASQDINTNIGWLQQKPGKAFKGLIYHGKNLEDGVPSRFSGSGSGTDFTLTISSLQPEDFATYYCNQYENNPLTFGQGTKVEIKRGGGGSGGGGSGGGGSDVQLVESGGGLVQPGGSLRLSCAVSGYSITSDYAWNWIRQAPGKGLEWLGYISYRGRTQYNPSLKSRISITRDNSKNTFFLQLNSLRAEDTAVYYCARLGRGFRYWGQGTLVTVSS .
31.6

Query (binder): S22/CD3 single chain bifunctional antibody (bispecific antibody, part only; not given: linker, anti-CD3 scFv, His tag, not shown: another chain or arm of the molecule) DIQMTQSPSSLSASVGDRVTITCHASQDINVNIGWLQQKPGKAFKGLIYHGTNLEDGVPSRFSGSGSGTDFTLTISSLQPEDFATYYCNQYENNPLTFGQGTKVEIKRGGGGSGGGGSGGGGSDVQLVESGGGLVQPGGSLRLSCAVSGYSITSDYAWNWIRQAPGKGLEWLGYISYRGRTRYNPSLKSRISITRDNSKNTFFLQLNSLRAEDTAVYYCARLGRGFRYWGQGTLVTVSS ; field requested: mean fluorescence intensity (MFI)
31.3

Request the reported mean fluorescence intensity (MFI) associated with S23/CD3 single chain bifunctional antibody (bispecific antibody, part only; not given: linker, anti-CD3 scFv, His tag, not shown: another chain or arm of the molecule) DIQMTQSPSSLSASVGDRVTITCHASQDINVNIGWLQQKPGKSFKGLIYHGKNLEDGVPSRFSGSGSGTDFTLTISSLQPEDFATYYCNQYENNPLTFGQGTKVEIKRGGGGSGGGGSGGGGSDVQLVESGGGLVQPGGSLRLSCAVSGYSITSDYAWNWIRQAPGKGLEWLGYISYRGRTRYNPSLKSRISITRDNSKNTFFLQLNSLRAEDTAVYYCARLGRGFRYWGQGTLVTVSS
32.2
